Quick reference for protein stability index among some variants
B1: C1orf137 (parent)
chain: LPQETNLTLKVCKPQAPQKLDPTL

- Variants of: B1
- protocol.text: protein stability index of a GFP-peptide fusion (GPS, HEK-293T) (PSI 1-6); higher = more stable;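 note: lentivirally expressed fusions sorted by FACS into six bins by GFP to DsRed ratio, PSI derived from sequencing read proportions per bin multiplied by bin number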
- condition.set: c terminus: a fixed tail appended
Just the number, please, no unit attached.

protein stability index in this record for "Q15W" : 3.5

Looking up "A16Y" , I see its protein stability index listed as 3.38

New cases:
// protein stability index value for "L1F" : 2.79

Looking up "T23Y" , I see its protein stability index listed as 2.94

So for "L1A" , the logged protein stability index turned out to be 4.06

Reported protein stability index of "P17G" : 3.74

In plain terms, "P17H" has a documented protein stability index of 3.58

Data origin: the supplement of paper PMC10567573
